Value source: patent US20210355194A1

specificity ELISA, percent binding relative to Acro S1 values by entry
assayed.target: T1, COVID S1 RBM Fc fusion (Antigen 2) (SARS-CoV-2, UniProt P0DTC2 437-508)
T1 construct: domain: S1 RBM
test: phage ELISA
measurement.label: specificity ELISA, percent binding relative to Acro S1 (%)

binder="variant 2-2 (antibody, V domains shown) VH: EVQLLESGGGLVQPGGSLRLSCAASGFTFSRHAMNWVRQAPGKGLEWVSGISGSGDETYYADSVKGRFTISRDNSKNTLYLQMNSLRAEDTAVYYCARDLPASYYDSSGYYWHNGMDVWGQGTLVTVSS VL: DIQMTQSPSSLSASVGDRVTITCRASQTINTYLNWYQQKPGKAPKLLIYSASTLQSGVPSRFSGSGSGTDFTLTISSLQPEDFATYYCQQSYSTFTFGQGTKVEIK" number=2.8
binder="variant 2-12 (antibody, V domains shown) VH: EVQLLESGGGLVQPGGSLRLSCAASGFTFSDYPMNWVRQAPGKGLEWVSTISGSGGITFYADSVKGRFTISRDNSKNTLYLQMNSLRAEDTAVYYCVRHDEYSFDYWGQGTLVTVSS VL: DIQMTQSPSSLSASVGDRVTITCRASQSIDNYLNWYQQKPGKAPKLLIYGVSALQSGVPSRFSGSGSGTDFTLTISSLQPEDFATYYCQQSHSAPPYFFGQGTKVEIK" number=2.9
binder="variant 2-4 (antibody, V domains shown) VH: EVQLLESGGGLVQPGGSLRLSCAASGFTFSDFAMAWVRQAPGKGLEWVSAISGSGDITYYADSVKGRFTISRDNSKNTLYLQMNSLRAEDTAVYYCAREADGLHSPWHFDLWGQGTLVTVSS VL: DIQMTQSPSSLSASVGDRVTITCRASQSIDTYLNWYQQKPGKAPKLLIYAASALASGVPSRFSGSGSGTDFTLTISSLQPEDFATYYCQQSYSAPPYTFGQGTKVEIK" number=3.1
